- System: MDA-MB-231
- run_description: shRNA barcode abundance ratio t_end/t_zero (depletion over 4 weeks of proliferation) (log2 ratio); higher = less depletion (weaker anti-proliferative effect of the shRNA)
- study_conditions: time after t zero 28 days
experimental_endpoint: shRNA barcode abundance ratio t end/t zero (log2)
// no unit, no text: just the number

Consider the worked cases shown below.
> print(dat)
                           ordered.residues  obs.value
1  GGGAATGATCAGATTCCTTTA (targeted gene: BFAR)      0.171
2  GCGCGAGTTCGCTTCTAATAT (targeted gene: GSX1)      0.174
3  GCTGTGGTTAATTACACATTA (targeted gene: ACVR1)     -0.208
4  CCTTGGAAAGGATGAACAAAT (targeted gene: TOPORS)      0.154
5  GGCCATTCATTTAATGTGCAT (targeted gene: HBXIP)      0.497

So what's the measured shRNA barcode abundance ratio t end/t zero (log2) for this one? GGCCAGAATATCATTGTCATA (targeted gene: RBKS)
-0.309

Same thing, different sequence: CCTCCGTCCCTCCTACCATAA (targeted gene: MYBL2)
0.0727

Same thing, different sequence: GGCTTTGTCTTTACAGGTAAA (targeted gene: NAIP)
0.603

Same thing, different sequence: CCATATTTGCATTTGAAGGTA (targeted gene: BCL2A1)
0.349

Same thing, different sequence: GGTTTGTGCCTTACATTATTA (targeted gene: PSEN1)
-1.92

Same thing, different sequence: GGACAGTGCTTGATACAGGAA (targeted gene: PIM1)
0.128

Same thing, different sequence: CATCTCAGTATGCATGGTATA (targeted gene: CFLAR)
-0.976

Same thing, different sequence: GCAAATGGAATCTTTATGAAA (targeted gene: MALT1)
0.375

Same thing, different sequence: GCCTATATCAGCAATTGTCAT (targeted gene: ATM)
-0.178

Same thing, different sequence: GGCCATTATGCACAGGTTGAA (targeted gene: CD40LG)
0.119

Same thing, different sequence: GCAATTGAGAGCATTCTTAAA (targeted gene: IL3)
-0.0688

Same thing, different sequence: CCAGAATCTCTGGGAATATAA (targeted gene: BFAR)
-0.109

Same thing, different sequence: GGCCATGCCTGTTTACAAGAA (targeted gene: TP73)
-0.24

Same thing, different sequence: GGCCCAAATTATCAAGCTAAT (targeted gene: CRYAB)
-0.348

Same thing, different sequence: CCTGACCTCCCTCTAATTTAT (targeted gene: IL10)
0.309

Same thing, different sequence: GCTAAGAGATTCGCCTTAAAT (targeted gene: SOCS3)
0.308

Same thing, different sequence: GCTTAGAACTTTAAGCAACAA (targeted gene: TNF)
-1.56
